Source listed as patent US20260085114A1.

target: T1, human GPRC5C, on 293T cells (human, UniProt Q9NQ84 24-441); test: FACS on 293T-GPRC5C cells, antibody at 2 µg/mL; control tubes 8.86 and 8.73
T1 construct: whole, on cells; also called 293T-GPRC5C
T1 sequence (Q9NQ84 24-441): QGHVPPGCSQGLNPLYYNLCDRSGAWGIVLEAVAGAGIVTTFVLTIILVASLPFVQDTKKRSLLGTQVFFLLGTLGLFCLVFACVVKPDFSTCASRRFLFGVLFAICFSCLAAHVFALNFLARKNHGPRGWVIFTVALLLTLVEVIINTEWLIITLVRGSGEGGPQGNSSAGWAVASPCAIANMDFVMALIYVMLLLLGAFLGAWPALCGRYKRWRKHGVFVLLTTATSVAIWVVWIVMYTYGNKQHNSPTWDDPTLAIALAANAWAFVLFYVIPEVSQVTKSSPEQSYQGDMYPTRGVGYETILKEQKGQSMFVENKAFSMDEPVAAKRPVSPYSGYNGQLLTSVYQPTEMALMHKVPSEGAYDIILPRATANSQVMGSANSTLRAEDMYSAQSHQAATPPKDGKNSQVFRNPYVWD
Property label: FACS result

humanized antibody 6E97 (hz) (antibody, V domains shown) VH: QVQLVQSGAEVKKPGASVKVSCKASGYTFPYYVIHWVRQAPGQGLEWIGYINPYNAGTKYNEKFKGRATLTSDKSTSTAYMELSSLRSEDTAVYYCARGGVRRYFDYWGQGTTVTVSS VL: DIQLTQSPSTLSASVGDRVTITCRASQDIGSNLNWLQQKPGGTIKRLISATSSLDSGVPSRFSGSRSGSEYTLTISSLQPDDFATYYCLQYATFPYTFGQGTRLEIKR = 8.78
humanized antibody 24F5 (hz) (antibody, V domains shown) VH: QVQLVQSGAEVKKPGASVKVSCKASGYTFPYYVMHWVRQAPGQGLEWIGYINPYNDGTKYNEKFKGRATLTSDKSTSTAYMELSSLRSEDTAVYYCARGGVRRYFDYWGQGTTVTVSS VL: DIQMTQSPSTLSASVGDRVTITCRASQDIGSNLNWLQQKPGGTIKRLIYATSSLDSGVPSRFSGSRSGSEYTLTISSLQPDDFATYYCLQYATFPYTFGQGTRLEIKR = 8.97
humanized antibody 26D1 (hz) (antibody, V domains shown) VH: QVQLVQSGAEVKKPGASVKVSCKASGYTFTSYTIQWIKQAPGQGLEWIGYIIPSSGYTNYNQKFKDKATLTADKSSNTAYMELSSLTSEDTAVYYCANNYGNWGFTYWGQGTTVTVSS VL: DIQMTQSPSTLSASVGDRVTITCKASQNVGSAVTWYQQKPGKAPRLLIYSASNRYTGVPDRFSGSGSGTEFTLTISSLQPDDFATYFCQQYSNYPLTFGQGTRLEIKR = 8.89

We next turn to a different binder, shown below.
Per the record, humanized antibody 9D7 (hz) (antibody, V domains shown) VH: QVQLQESGPGLVKPSETLSLTCTVSGYSITSDYAWNWIRQPPGKGLEWMGYISYSGSATYSPSLKSRITISRDTSKNQFSLKLSSVTAADTAVYYCARGGIAGRGRWGAMDYWGQGTTVTVSS VL: DIQMTQSPSSLSASVGDRVTITCKASQNVGTNVAWYQQKPGQSPKALIYSASYRDSGVPDRFSGSGSGTDFTLTISSLQPEDFATYYCQQYKSYPLTFGQGTRLEIKR has FACS result of 8.48
